ASSAY_METHOD_TEXT: chemical genetic growth profiling, strain panel (AID 1159580);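 also: tested at 20 µM; growth read once vehicle control cultures reached saturation at 30 °C; 1 = growth at the plate median or of vehicle wells; lower values mean less growth of the strain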
CONDITION_NOTES: S. cerevisiae deletion strains, growth OD, locus YIL066C, strain RNR3
Screen size: about 5,500 compounds; about 2,000 (36%) were called active. About 18% were inconclusive and are not listed. Rule as the data show it: active = normalized growth mostly below about 0.91 (no sharp cut-off); inconclusive = no clear call, values can overlap the other calls; inactive = mostly above about 0.92. The list shows a part of the results.
Classes used: active, inactive

• Oc1c(Cl)c(Cl)c(Cl)c(Cl)c1Cl = active
• NC(=O)N1c2ccccc2CC(=O)c2ccccc21 = inactive
• OCC(O)Cc1ccc2c(c1)OCO2 (configuration not stated) = inactive
• CN1C2CC3C[C@H]1C(O3)C2O (some centres not stated) = inactive
• C=CCc1ccc2c(c1)OCO2 = inactive
• NC(N)=NOCC[C@H](N)C(=O)O = inactive
• CC(C)=CCc1c(O)cc2oc(C)cc(=O)c2c1O = inactive

====

ASSAY_METHOD_TEXT: chemical genetic growth profiling, strain panel (AID 1159580);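 also: tested at 20 µM; growth read once vehicle control cultures reached saturation at 30 °C; 1 = growth at the plate median or of vehicle wells; lower values mean less growth of the strain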
CONDITION_NOTES: S. cerevisiae deletion strains, growth OD, locus YNL071W, strain lat1, hits give low values
Out of some 5,500 compounds screened, about 2,000 (36%) were called active. About 18% were inconclusive and are not listed. This is one part of the list.
ASSAY_READOUT: normalized growth

* CC1(C)S[C@@H]2[C@H](NC(=O)[C@H](NC(=O)N3CCNC3=O)c3ccccc3)C(=O)N2C1C(=O)O (some centres undefined) | 0.989
* CC1(C)C2CC[C@]3(C)C(C(=O)C=C4[C@@H]5C[C@@](C)(C(=O)O)CC[C@]5(C)CC[C@]43C)[C@@]2(C)CC[C@@H]1OC(=O)CCC(=O)O (some centres undefined) | 0.994
* COc1ccc(-c2coc3c(OC)c(OC)cc(O)c3c2=O)cc1 | 1
* CCOC(=O)c1ncn2c1CN(C)C(=O)c1cc(F)ccc1-2 | 1.01
* COc1ccc2c(c1)C1(C)CCC(=O)CC1CC2 (centres undefined) | 1
* COc1ccc2c(c1)OC[C@@H](Cc1ccc(OC)c(OC)c1)[C@@H]2O | 0.994
* CCc1ccc(CCOc2ccc(CC3SC(=O)NC3=O)cc2)nc1 (centres undefined) | 1.01
* Cc1cc(C(C)(C)CC(C)(C)C)ccc1OCCOCC[N+](C)(C)Cc1ccccc1 | 0.0592
* C/C=C(/C(=C/C)c1ccc(O)cc1)c1ccc(O)cc1 | 0.906
* CC(=O)O[C@]1(C(C)=O)CCC2C3C=C(C)C4=CC(=O)CCC4(C)C3CCC21C (some centres undefined) | 0.822
* CC(=O)O[C@]1(C(C)=O)CCC2C3C=C(Cl)C4=CC(=O)CC[C@]4(C)C3CC[C@@]21C (some centres undefined) | 1.01
* COC1C(O)C(O)C(O)[C@@H](O)C1O (some centres undefined) | 0.973
* CC(=O)O[C@@](C)(CCC=C(C)C)C1CC=C(C)CC1 (some centres undefined) | 0.99
* COc1ccc(-c2coc3c(O)c(OC)ccc3c2=O)cc1 | 0.571
* CC(C)[N+](C)(CCOC(=O)C1c2ccccc2Oc2ccccc21)C(C)C | 1.01
* S=C=NCc1ccccc1 | 0.0773
* COc1ccc(-c2cc(=O)c3c(O)cc(OC)c(OC)c3o2)c(OC)c1 | 1.02
* Cn1cc[nH]c1=S | 0.989
* CCCCOc1ccc(C(=O)CCN2CCCCC2)cc1 | 0.567
* CCCCCCCCCCCCC[N+](C)(C)Cc1ccccc1 | 0.0572
* CCCCOc1ccc(OCCCN2CCOCC2)cc1 | 0.663
* Cc1ccc(O)cc1 | 1.02
* CC(C)N(C(=O)CCl)c1ccccc1 | 0.922
* COc1cc(OC)c2c(c1)O[C@H](c1ccc(OC)c(OC)c1)[C@@H](O)C2 | 0.989

All values here come from PubChem BioAssay AID1159580.
